Each entry below lists one item and its recorded cytotoxicity at 70.5 h value.
Assay: Human HepG2 cell viability assay in 384 well format
Type: toxicity, cell-based
Parameters: dose 125 nL, time 70.5 hour; concentration not given beside the values
Conditions: HepG2 cells, read-out: Inhibition
Express it in %; write the number only.

Known cytotoxicity at 70.5 h results, listed for orientation:
INSERT INTO results (molecule, endpoint_name, measurement_unit, measured_result) VALUES
  ('O=C1Nc2ccccc2CN(CC2CC2)C12CCNC2 (stereo unspecified)', 'cytotoxicity at 70.5 h', '%', -3.48),
  ('COCC1CC2(CCN(C(=O)c3cnc4ccccc4c3)CC2)CO1 (stereo unspecified)', 'cytotoxicity at 70.5 h', '%', -0.655),
  ('COC(=O)c1cccc(CNC(=O)CC(F)(F)F)c1', 'cytotoxicity at 70.5 h', '%', -5.17),
  ('O=S(=O)(c1ccccc1)N1CC[C@]2(C[C@@H](OCC3CC3)CO2)C1', 'cytotoxicity at 70.5 h', '%', -10.2);

Req: I'd like to know its cytotoxicity at 70.5 h. The molecule in question is `Cc1cc(C)c(CNC(=O)N2CCCN(C(=O)C(C)C)CC2)c(C)c1`
Resp: 15.9

Req: I'd like to know its cytotoxicity at 70.5 h. The molecule in question is `CC(C)[C@H]1CN(Cc2nccn2C)C[C@@H]1NC(=O)COCC(N)=O`
Resp: -9.51
